Biological target: PWI R769A+R770A (Homo sapiens, UniProt P49756 734-843, R769A;R770A)
Sequence (P49756 734-843 R769A/R770A): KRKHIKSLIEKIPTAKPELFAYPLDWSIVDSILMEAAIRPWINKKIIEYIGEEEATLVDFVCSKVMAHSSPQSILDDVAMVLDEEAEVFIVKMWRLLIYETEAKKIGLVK
Test: fluorescence polarization
reportedProperty: pKd
Lab note — pKd values are minus log10 of concentrations in M.

Request: Consider the binder AUCGGGCA (ssRNA) [ssRNA] . State its measured pKd.
Result: 4.49

meta.source: paper PMC3553564
